# assay_protocol: Compound solubility in water
# settings: water, Compound Solubility in Water
solubility for assorted molecules

[
  {
    "molecule": "COCc1cc(COC)n2ccc(C(=O)NC3(C)CCOc4cc(F)c(F)cc43)c2n1 (centres unmarked) [III-155]",
    "solubility, µg/mL": 2.1
  },
  {
    "molecule": "Cc1cc(C)n2ccc(C(=O)NC3CCCc4cccnc43)c2n1 (centres unmarked) [III-193]",
    "solubility, µg/mL": 27.2
  },
  {
    "molecule": "CCCCO[C@H]1CC[C@H](NC(=O)c2ccn3c(C)cc(COC)nc23)CC1 [III-45]",
    "solubility, µg/mL": 13.6
  },
  {
    "molecule": "CCCCO[C@H]1CC[C@H](NC(=O)c2ccn3c(C)cc(Cl)nc23)CC1 [III-65]",
    "solubility, µg/mL": 8.2
  },
  {
    "molecule": "CC[C@H](C)O[C@H]1CC[C@H](NC(=O)c2ccn3c(C)cc(C)nc23)CC1 [III-125]",
    "solubility, µg/mL": 11.1
  }
]

The reported numbers originate from patent US11351173B2.
